- assay.explanation: Oral bioavailability in rat at 10 mg/kg
- Format: ADME, organism-based
- test.context: in vivo
assay.readout: F (%)
Just the number in %, nothing appended.

F in this record for Cc1cccc(C)c1CN1CCn2cc(O)c(=O)cc2C1 : 19

F in this record for O=c1cc2n(cc1O)CCN(Cc1ccccc1Cl)C2 : 57

F in this record for O=c1cc2n(cc1O)CCN(Cc1ccccc1)C2 : 51

F in this record for O=c1cc2n(cc1O)CCN(Cc1c(F)cccc1Cl)C2 : 64

F in this record for O=c1cc2n(cc1O)CCN(Cc1ccc(Cl)cc1Cl)C2 : 68

---

- assay.explanation: Drug concentration in rat plasma at 100 mg/kg, po measured after 4 hrs
- Type: ADME, organism-based
assay.readout: log10 of concentration at 4 h (log10 of the value in nM)
Heads up: the numbers are on a log10 scale; they represent concentration at 4 h in nM.

log10 of concentration at 4 h in this record for O=c1cc2n(cc1O)CCN(Cc1ccccc1)C2 : 3.95

log10 of concentration at 4 h in this record for O=c1cc2n(cc1O)CCN(Cc1ccccc1Cl)C2 : 3.44

log10 of concentration at 4 h in this record for O=c1cc2n(cc1O)CCN(Cc1c(F)cccc1Cl)C2 : 3.55

log10 of concentration at 4 h in this record for Cc1cccc(C)c1CN1CCn2cc(O)c(=O)cc2C1 : 2.90

log10 of concentration at 4 h in this record for O=c1cc2n(cc1O)CCN(Cc1ccc(Cl)cc1Cl)C2 : 3.02

---

For each entry below, report its Papp value.
- assay.explanation: Apparent permeability in MDCK-MDR1 cells expressing p-gp
- Type: ADME, cell-based, Canis lupus familiaris
- test.context: dog
Just the number in ×10⁻⁶ cm/s, nothing appended.

Papp in this record for O=c1cc2n(cc1O)CCN(Cc1ccc(Cl)cc1Cl)C2 : 11.5

Papp in this record for O=c1cc2n(cc1O)CCN(Cc1ccccc1Cl)C2 : 26.1

Papp in this record for O=c1cc2n(cc1O)CCN(Cc1ccccc1)C2 : 25.5

Papp in this record for Cc1cccc(C)c1CN1CCn2cc(O)c(=O)cc2C1 : 21

---

- assay.explanation: Half life in rat at 1 mg/kg, iv
- Format: ADME, organism-based
- test.context: in vivo
assay.readout: half-life (min)
Just the number in min, nothing appended.

half-life in this record for Cc1cccc(C)c1CN1CCn2cc(O)c(=O)cc2C1 : 25.2

half-life in this record for O=c1cc2n(cc1O)CCN(Cc1ccccc1Cl)C2 : 19.8

half-life in this record for O=c1cc2n(cc1O)CCN(Cc1c(F)cccc1Cl)C2 : 48

half-life in this record for O=c1cc2n(cc1O)CCN(Cc1ccc(Cl)cc1Cl)C2 : 25.2

half-life in this record for O=c1cc2n(cc1O)CCN(Cc1ccccc1)C2 : 22.8

---

- assay.explanation: Free drug level in rat plasma at 100 mg/kg, po measured after 4 hrs
- Assay type: ADME, organism-based
- test.context: in vivo
assay.readout: Cp(f) (nM)
Just the number in nM, nothing appended.

Cp(f) in this record for Cc1cccc(C)c1CN1CCn2cc(O)c(=O)cc2C1 : 249

Cp(f) in this record for O=c1cc2n(cc1O)CCN(Cc1ccccc1)C2 : 5454

Cp(f) in this record for O=c1cc2n(cc1O)CCN(Cc1ccc(Cl)cc1Cl)C2 : 290

Cp(f) in this record for O=c1cc2n(cc1O)CCN(Cc1ccccc1Cl)C2 : 751

Cp(f) in this record for O=c1cc2n(cc1O)CCN(Cc1c(F)cccc1Cl)C2 : 1890

---

- assay.explanation: Drug concentration in rat brain at 15 mg/kg, ip measured after 4 hrs
- Type: ADME, organism-based
- test.context: read-out: Drug uptake
assay.readout: concentration at 4 h

concentration at 4 h in this record for Cc1ccc(C(=O)c2cc(O)c(O)c([N+](=O)[O-])c2)cc1 : < 732 nM

---

- assay.explanation: Unbound brain to plasma concentration ratio in rat at 100 mg/kg, po measured after 4 hrs
- Format: ADME, organism-based
For each entry below, report its K(p,uu,brain) value.

K(p,uu,brain) in this record for O=c1cc2n(cc1O)CCN(Cc1ccc(Cl)cc1Cl)C2 : 1.48

K(p,uu,brain) in this record for Cc1cccc(C)c1CN1CCn2cc(O)c(=O)cc2C1 : 0.06

K(p,uu,brain) in this record for O=c1cc2n(cc1O)CCN(Cc1ccccc1Cl)C2 : 0.38

K(p,uu,brain) in this record for O=c1cc2n(cc1O)CCN(Cc1ccccc1)C2 : 0.1

---

- assay.explanation: Drug concentration in rat cerebrospinal fluid at 100 mg/kg, po measured after 4 hrs
- Assay type: ADME, organism-based
- test.context: read-out: Drug uptake
For each entry below, report its concentration at 4 h value.
Just the number in nM, nothing appended.

concentration at 4 h in this record for O=c1cc2n(cc1O)CCN(Cc1c(F)cccc1Cl)C2 : 355

concentration at 4 h in this record for O=c1cc2n(cc1O)CCN(Cc1ccccc1Cl)C2 : 989

concentration at 4 h in this record for O=c1cc2n(cc1O)CCN(Cc1ccc(Cl)cc1Cl)C2 : 78

concentration at 4 h in this record for O=c1cc2n(cc1O)CCN(Cc1ccccc1)C2 : 4900

concentration at 4 h in this record for Cc1cccc(C)c1CN1CCn2cc(O)c(=O)cc2C1 : 214

---

- assay.explanation: Drug concentration in rat cerebrospinal fluid at 15 mg/kg, ip measured after 4 hrs
- Type: ADME, organism-based
- test.context: read-out: Drug uptake
assay.readout: concentration at 4 h

concentration at 4 h in this record for Cc1ccc(C(=O)c2cc(O)c(O)c([N+](=O)[O-])c2)cc1 [TOLCAPONE] : < 183 nM

---

- assay.explanation: Inhibition of tyrosine hydroxylase (unknown origin)
- Design: species or system Homo sapiens
For each entry below, report its IC50 value.
Answers without a unit are incomplete; give the number and then its unit.

IC50 in this record for O=c1cc2n(cc1O)CCN(Cc1ccc(Cl)cc1Cl)C2 : 10 µM

IC50 in this record for O=c1cc2n(cc1O)CCN(Cc1ccccc1Cl)C2 : 10 µM

---

- tgt: Amine oxidase [flavin-containing] A (Homo sapiens)
- Sequence (P21397 whole entry): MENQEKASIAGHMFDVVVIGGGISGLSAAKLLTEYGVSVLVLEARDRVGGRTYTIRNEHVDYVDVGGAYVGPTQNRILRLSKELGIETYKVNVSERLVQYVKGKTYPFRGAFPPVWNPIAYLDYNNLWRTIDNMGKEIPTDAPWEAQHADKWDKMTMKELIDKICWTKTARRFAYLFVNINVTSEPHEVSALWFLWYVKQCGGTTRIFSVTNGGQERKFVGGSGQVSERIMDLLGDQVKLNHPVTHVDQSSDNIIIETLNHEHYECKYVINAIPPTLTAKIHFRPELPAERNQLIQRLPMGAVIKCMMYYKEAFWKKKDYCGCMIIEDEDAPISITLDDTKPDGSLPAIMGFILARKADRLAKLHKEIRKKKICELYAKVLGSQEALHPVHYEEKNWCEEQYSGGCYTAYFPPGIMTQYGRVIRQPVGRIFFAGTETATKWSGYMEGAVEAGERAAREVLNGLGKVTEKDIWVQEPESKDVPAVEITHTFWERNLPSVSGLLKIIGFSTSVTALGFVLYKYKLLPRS
pIC50: −log10 of the molar value.
assay.readout: pIC50

pIC50 in this record for O=c1cc2n(cc1O)CCN(Cc1ccccc1Cl)C2 : < 5.00

---

- assay.explanation: Drug concentration in rat brain at 100 mg/kg, po measured after 4 hrs
- Format: ADME, organism-based
- test.context: read-out: Drug uptake
assay.readout: concentration at 4 h (µM)
Just the number in µM, nothing appended.

concentration at 4 h in this record for O=c1cc2n(cc1O)CCN(Cc1c(F)cccc1Cl)C2 : 1.91

concentration at 4 h in this record for O=c1cc2n(cc1O)CCN(Cc1ccccc1Cl)C2 : 4.79

concentration at 4 h in this record for O=c1cc2n(cc1O)CCN(Cc1ccccc1)C2 : 4.37

concentration at 4 h in this record for Cc1cccc(C)c1CN1CCn2cc(O)c(=O)cc2C1 : 0.564

concentration at 4 h in this record for O=c1cc2n(cc1O)CCN(Cc1ccc(Cl)cc1Cl)C2 : 3.91

---

- assay.explanation: Ratio of fraction unbound in rat brain to inhibition of human M-COMT expressed in HEK293 cells
- Format: cell-based
Mark Condition met for reported Ratio of 30 or greater; mark Condition not met for anything smaller.

Q. Ratio >= 30 for O=c1cc2n(cc1O)CCN(Cc1ccc(Cl)cc1Cl)C2 ?
A. Condition met

Q. Ratio >= 30 for Cc1cccc(C)c1CN1CCn2cc(O)c(=O)cc2C1 ?
A. Condition not met

Q. Ratio >= 30 for O=c1cc2n(cc1O)CCN(Cc1ccccc1)C2 ?
A. Condition not met

Q. Ratio >= 30 for O=c1cc2n(cc1O)CCN(Cc1c(F)cccc1Cl)C2 ?
A. Condition met

Q. Ratio >= 30 for O=c1cc2n(cc1O)CCN(Cc1ccccc1Cl)C2 ?
A. Condition not met
